Entries and their log2 fold change of degron read counts
# SYSTEM: T1, CRBN, Q96SW2;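 note: pooled lentiviral library of zinc finger degron-EGFP fusions in mCherry-positive Jurkat cells, FACS-sorted after compound exposure, with degron abundance counted by next-generation sequencing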
# T1 chain: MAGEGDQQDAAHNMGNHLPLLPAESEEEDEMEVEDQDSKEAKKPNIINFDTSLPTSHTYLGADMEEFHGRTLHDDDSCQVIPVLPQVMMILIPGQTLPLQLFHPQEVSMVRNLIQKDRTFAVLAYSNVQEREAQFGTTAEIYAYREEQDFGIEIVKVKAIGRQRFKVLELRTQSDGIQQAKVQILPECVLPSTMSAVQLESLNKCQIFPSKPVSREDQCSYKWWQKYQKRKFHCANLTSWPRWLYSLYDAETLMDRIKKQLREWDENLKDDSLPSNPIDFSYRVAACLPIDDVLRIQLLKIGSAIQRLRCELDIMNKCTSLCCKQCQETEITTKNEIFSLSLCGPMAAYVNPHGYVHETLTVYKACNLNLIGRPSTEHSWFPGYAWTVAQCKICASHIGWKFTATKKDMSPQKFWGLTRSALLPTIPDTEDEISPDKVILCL
# EXPERIMENTAL_PROTOCOL: log2 fold change of degron read counts, EGFP-low vs EGFP+ sorted cells (limma voom), compound-induced degradation; higher = more compound-induced degradation of the degron-EGFP fusion; degrons are variants of IKZF1/3 zinc finger 2; compound dose not given here
# MEASUREMENT_PARAMETERS: Jurkat; 18 h; compound: compound 19 (5-tert-butyl-thalidomide)
Over roughly 8,300 sequences, “log2 fold change of degron read counts, EGFP-low vs EGFP+ sorted cells (limma voom), compound-induced degradation” has its median near -1.1; the highest 2% begin near 3.2. The sample holds the highest values, similar sequences and a random draw of the others, so the mix is not that of the screen.
Would you mind answering with just the numeric figure?

// below: answered sequences
MACROMOLECULE_SEQUENCE	log2 fold change of degron read counts
FSCEVCGAPFTQKGNLLRHIKL [46F_47S_49E_50V_52G_53A_54P_55F_67L_, Q9UKT9]	2.89
FACEVCGAPFTQKGNLLRHIKL [46F_47A_49E_50V_52G_53A_54P_55F_67L_, Q9UKT9]	3.19
FHCEVCGAPFTQKGNLLRHIKL [46F_47H_49E_50V_52G_53A_54P_55F_67L_, Q9UKT9]	3.54

Attention now turns to another entry.
Looking up FTCNVCGAPFTQKGNLLRHIKL [46F_47T_49N_50V_52G_53A_54P_55F_67L_, Q9UKT9] , I see its log2 fold change of degron read counts listed as 0.145

Measured values drawn from the supplement of paper PMC12645437 for this set.
